Assay: Toxicity liver stage against HepG2, at 10uM
Assay type: cell-based
Design: test concentration 10 uM, cell line HepG2-A16-CD81EGFP
Settings: human, HepG2-A16-CD81EGFP cells; read-out: INHIBITION
endpoint-label: cytotoxicity at 10 µM (%)
Provide the reading as a plain figure in %.

c1ccc(-c2cnc(CN3CCCC3Cn3cncn3)o2)cc1 (stereo unspecified)
-5.82
Cc1ccsc1C(=O)N1CCc2ncc(CN(C)C)n2CC1
-101
COC1CCN(S(=O)(=O)N2CCCC2c2ccco2)CC1 (stereo unspecified)
11
CNC(=O)COc1ccccc1CNCc1c(C)noc1C
2.32
COCCN1CC[C@]2(CN(C(=O)c3ccc[nH]3)C[C@H]2C)C1=O
2.53

Let us examine a further case.
Return cytotoxicity at 10 µM (reported value) for this compound: CCOc1ccc2[nH]c3c(N(C)CC4OCCO4)ncnc3c2c1
15.2

Provenance of the data: ChEMBL document CHEMBL4513216
